Molecular target: T1, Ribbon (Rib) full-length (Drosophila melanogaster, UniProt Q7KF43 1-661)
T1 sequence: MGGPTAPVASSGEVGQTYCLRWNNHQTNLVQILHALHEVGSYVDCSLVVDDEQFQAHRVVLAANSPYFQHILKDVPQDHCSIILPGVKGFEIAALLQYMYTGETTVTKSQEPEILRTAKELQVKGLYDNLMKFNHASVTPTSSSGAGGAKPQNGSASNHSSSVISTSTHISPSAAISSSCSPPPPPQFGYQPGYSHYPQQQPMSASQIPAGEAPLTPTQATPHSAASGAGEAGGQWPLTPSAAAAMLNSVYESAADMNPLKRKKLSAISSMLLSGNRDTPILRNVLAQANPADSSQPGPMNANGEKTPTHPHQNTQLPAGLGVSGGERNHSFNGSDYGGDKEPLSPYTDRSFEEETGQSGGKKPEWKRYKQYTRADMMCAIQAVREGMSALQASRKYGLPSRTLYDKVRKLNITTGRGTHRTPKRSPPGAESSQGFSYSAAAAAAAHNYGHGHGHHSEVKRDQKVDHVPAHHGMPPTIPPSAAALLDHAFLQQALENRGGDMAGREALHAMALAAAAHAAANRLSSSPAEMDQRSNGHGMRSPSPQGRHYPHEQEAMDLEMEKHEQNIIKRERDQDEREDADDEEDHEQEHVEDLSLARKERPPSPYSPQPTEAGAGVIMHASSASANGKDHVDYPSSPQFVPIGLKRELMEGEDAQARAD
Experiment: EMSA
measured endpoint: binding result

>>> recorded_result("RpS10b (dsDNA) DNA 1: ATCCCTTCCGTTTCCCTTTCTTTTCGTCTTCACGTTTCCGGTGAGTGCGT DNA 2: ACGCACTCACCGGAAACGTGAAGACGAAAAGAAAGGGAAACGGAAGGGAT")
"binds"
>>> recorded_result("RpL7A (dsDNA) DNA 1: AACTGCCACTTCCTTTCTTTTTCGTTCCACGTTTCCGGTGAGTGCATGTG DNA 2: CACATGCACTCACCGGAAACGTGGAACGAAAAAGAAAGGAAGTGGCAGTT")
"binds"
>>> recorded_result("RpS27A (dsDNA) DNA 1: TTCAACTTCCTGTCACGCTGTGTGTGTGTTCTTTCTTTCCTTTGATTCTG DNA 2: CAGAATCAAAGGAAAGAAAGAACACACACACAGCGTGACAGGAAGTTGAA")
"binds"
>>> recorded_result("RpL6 (dsDNA) DNA 1: CCCTGGTCACACCGCTCTAGACATAACCTTCCTTTTCCAATAATTTTTGT DNA 2: ACAAAAATTATTGGAAAAGGAAGGTTATGTCTAGAGCGGTGTGACCAGGG")
"binds"
>>> recorded_result("RpS17 (dsDNA) DNA 1: ACACAACCACCCTGGTCACACGGCATCCTTCTTTTTCTTTCGTTTCCGGC DNA 2: GCCGGAAACGAAAGAAAAAGAAGGATGCCGTGTGACCAGGGTGGTTGTGT")
"binds"
>>> recorded_result("RpL19 (dsDNA) DNA 1: TTCCGGCTGTCAAATTTTTCTTTCTTTCCTAGCCACGACGAGGTCGACAG DNA 2: CTGTCGACCTCGTCGTGGCTAGGAAAGAAAGAAAAATTTGACAGCCGGAA")
"binds"
>>> recorded_result("RpS18 (dsDNA) DNA 1: GGCAGCCACATTAATTCGGCCTTCTTTTCTTTTCCCGTTTCCGGTGAGTG DNA 2: CACTCACCGGAAACGGGAAAAGAAAAGAAGGCCGAATTAATGTGGCTGCC")
"binds"
>>> recorded_result("RpS17* (T to G in TC-rich motif) (dsDNA) DNA 1: ACACAACCACCCTGGTCACACGGCATCCGGCGGGGGCGGGCGGGGCCGGC DNA 2: GCCGGCCCCGCCCGCCCCCGCCGGATGCCGTGTGACCAGGGTGGTTGTGT")
"binds"
>>> recorded_result("RpL17 (dsDNA) DNA 1: ACTGCCATTTCCTTTCTTTTTCGTTCCACGTTTCCGGTGAGTGCATGTGC DNA 2: GCACATGCACTCACCGGAAACGTGGAACGAAAAAGAAAGGAAATGGCAGT")
"binds"
>>> recorded_result("RpS3 (dsDNA) DNA 1: AACGTGTCTCGCGCGGGCACACTGGCCTCTTTCTTTTCTGCGCACCACGT DNA 2: ACGTGGTGCGCAGAAAAGAAAGAGGCCAGTGTGCCCGCGCGAGACACGTT")
"binds"
>>> recorded_result("RpL11 (dsDNA) DNA 1: CGCGGCCACACTATCCTTTCCTTCTTTTCTTACAAGTTTCCGGTGAGTGC DNA 2: GCACTCACCGGAAACTTGTAAGAAAAGAAGGAAAGGATAGTGTGGCCGCG")
"binds"

Where do the numbers come from? From paper PMC9237840.
